Each entry below lists one item and its recorded ddG of mutation (higher = less stable) value.
B1: Ribonuclease HII, O74035 (parent)
chain: MKIAGIDEAGRGPVIGPMVIAAVVVDENSLPKLEELKVRDSKKLTPKRREKLFNEILGVLDDYVILELPPDVIGSREGTLNEFEVENFAKALNSLKVKPDVIYADAADVDEERFARELGERLNFEAEVVAKHKADDIFPVVSAASILAKVTRDRAVEKLKEEYGEIGSGYPSDPRTRAFLENYYREHGEFPPIVRKGWKTLKKIAEKVESEKKAEERQATLDRYFRKV

Variants of: B1
Conditions: Thermococcus kodakarensis (strain ATCC BAA-918 / JCM 12380 / KOD1); pH 9; 50 °C; GdnHCl; CD; Tris-HCl 20 mM; reversible: Yes; structure 1IO2; whole UniProt chain shown
Could you give me the number in kcal/mol? Just the number is fine.

Solved cases below.
>>> assay_result("E8Q")
-0.6
>>> assay_result("D7N")
-1.67
>>> assay_result("D105A")
-1.58
>>> assay_result("D135A")
-2.56

Now, please, on to the next variant.
Query: Entry E8A needs its ddG of mutation (higher = less stable) filled in; supply it.
Response: -2.65

The reported measurements were obtained from FireProtDB (doi:10.1021/bi060907v).
